experiment: Terminal half-life in C57BL/6J mouse plasma at 50 mg/kg, po administered as single dose by LC-MS analysis; assay type: ADME, organism-based; conditions: read-out: beta t1/2 (converted)
Readout: half-life (h)
Answers are plain numbers, in h.

Specify reported half-life for the compound shown: C[C@H]1COCCN1c1nc(-c2cnc(N)cc2C(F)F)nc(N2CCOCC2)n1
4.7

* * *

assay: Tmax in C57BL/6J mouse thigh muscle at 50 mg/kg, po administered as single dose by LC-MS analysis; type: ADME, organism-based
Readout: Tmax

Specify reported Tmax for the molecule shown: C[C@H]1COCCN1c1nc(-c2cnc(N)cc2C(F)F)nc(N2CCOCC2)n1
30 min

* * *

assay: cells; conditions: Homo sapiens, A2058, 1 h
Description: Inhibition of Class 1 PI3K/mTOR in human A2058 cells assessed as reduction in S6 phosphorylation at Ser235/236 residue incubated for 1 hr by InCell Western assay
Would you kindly list pIC50 for each of these molecules?
Answers are plain numbers, as −log10 of the molar value.

// solved cases for pIC50 follow
C[C@H]1COCCN1c1cc(-c2cnc(N)nc2C(F)F)nc(N2CCOCC2)n1; 6.41
C[C@@H]1COC[C@H](C)N1c1nc(-c2cnc(N)cc2C(F)(F)F)nc(N2CCOCC2)n1; 6.87
C[C@H]1COCCN1c1nc(-c2cnc(N)nc2C(F)(F)F)nc(N2CCOCC2)n1; 6.79
C[C@H]1COCCN1c1nc(-c2cnc(N)nc2C(F)F)cc(N2CCOCC2)n1; 6.84

Go through the items and report each one's pIC50.
1. C[C@H]1COCCN1c1nc(-c2cnc(N)cc2C(F)(F)F)nc(N2CCOCC2)n1
2. C[C@H]1COCCN1c1nc(-c2cnc(N)nc2C(F)F)nc(N2CCOCC2)n1
3. C[C@H]1COC[C@H](C)N1c1nc(-c2cnc(N)cc2C(F)(F)F)nc(N2[C@@H](C)COC[C@@H]2C)n1

1: 7.05; 2: 7.19; 3: 6.27

* * *

test: Terminal half-life in C57BL/6J mouse brain at 50 mg/kg, po administered as single dose by LC-MS analysis; assay type: ADME, organism-based; details: read-out: beta t1/2 (converted)
Readout: half-life
Give me the value, and tack the unit on after it.

Specify reported half-life for the molecule shown: C[C@H]1COCCN1c1nc(-c2cnc(N)cc2C(F)F)nc(N2CCOCC2)n1
4.8 h

* * *

experiment: Tmax in C57BL/6J mouse brain at 50 mg/kg, po administered as single dose by LC-MS analysis; type: ADME, organism-based
Readout: Tmax
Give me the value, and tack the unit on after it.

Specify reported Tmax for the compound shown: C[C@H]1COCCN1c1nc(-c2cnc(N)cc2C(F)F)nc(N2CCOCC2)n1
30 min

* * *

biological target: Phosphatidylinositol 4,5-bisphosphate 3-kinase catalytic subunit alpha isoform (Homo sapiens, UniProt P42336); experiment: Displacement of Alexafluor labelled kinase tracer314 from recombinant N-terminal His6-tagged PI3K p110alpha (unknown origin) incubated for 1 hr by FRET-based LanthaScreen Eu kinase binding assay
Sequence (P42336 whole entry, canonical isoform): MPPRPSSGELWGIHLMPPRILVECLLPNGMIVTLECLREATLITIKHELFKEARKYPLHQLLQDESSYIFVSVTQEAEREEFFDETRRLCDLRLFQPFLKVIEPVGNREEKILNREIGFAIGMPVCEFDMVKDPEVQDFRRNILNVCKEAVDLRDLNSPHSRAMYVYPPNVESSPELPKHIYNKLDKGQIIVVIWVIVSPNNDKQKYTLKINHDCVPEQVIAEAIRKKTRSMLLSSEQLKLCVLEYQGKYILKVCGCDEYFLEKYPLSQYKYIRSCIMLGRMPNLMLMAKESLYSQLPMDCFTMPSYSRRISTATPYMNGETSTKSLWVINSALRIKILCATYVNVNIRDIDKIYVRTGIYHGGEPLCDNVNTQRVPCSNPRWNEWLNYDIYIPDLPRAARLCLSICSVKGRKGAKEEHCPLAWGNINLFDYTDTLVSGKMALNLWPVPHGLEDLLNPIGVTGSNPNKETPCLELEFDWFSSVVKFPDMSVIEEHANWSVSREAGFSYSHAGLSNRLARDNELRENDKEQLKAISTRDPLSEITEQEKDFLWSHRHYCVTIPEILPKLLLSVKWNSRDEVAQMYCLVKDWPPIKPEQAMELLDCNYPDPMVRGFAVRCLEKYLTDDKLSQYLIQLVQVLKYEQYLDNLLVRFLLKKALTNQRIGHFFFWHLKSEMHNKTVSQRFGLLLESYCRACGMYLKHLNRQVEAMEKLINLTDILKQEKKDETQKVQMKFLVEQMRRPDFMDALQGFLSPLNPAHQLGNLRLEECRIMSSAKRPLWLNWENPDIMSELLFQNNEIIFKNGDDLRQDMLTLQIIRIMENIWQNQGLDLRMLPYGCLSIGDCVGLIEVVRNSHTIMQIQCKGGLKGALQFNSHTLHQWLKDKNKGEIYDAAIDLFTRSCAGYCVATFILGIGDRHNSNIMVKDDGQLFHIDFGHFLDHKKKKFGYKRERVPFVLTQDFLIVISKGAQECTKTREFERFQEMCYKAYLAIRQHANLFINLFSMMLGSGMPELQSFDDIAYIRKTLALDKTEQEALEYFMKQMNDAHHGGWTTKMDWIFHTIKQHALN
// boundary case: Ki equal to 20 nM maps to not satisfied; strictly smaller maps to satisfied

Below, 6 molecules whose answers are already recorded.
C[C@@H]1COCCN1c1nc(-c2cnc(N)cc2C(F)(F)F)nc(N2CCOC[C@H]2C)n1; not satisfied
C[C@H]1COCCN1c1nc(-c2cnc(N)nc2C(F)F)cc(N2CCOCC2)n1; satisfied
C[C@H]1COCCN1c1cc(-c2cnc(N)cc2C(F)F)nc(N2CCOCC2)n1; satisfied
C[C@H]1COCCN1c1nc(-c2cnc(N)cc2C(F)F)nc(N2CCOCC2)n1; satisfied
Nc1cc(C(F)(F)F)c(-c2nc(N3CC4CCC(C3)O4)nc(N3CC4CCC(C3)O4)n2)cn1; not satisfied
Nc1cc(C(F)(F)F)c(-c2nc(N3CCOCC3)nc(N3CC4CCC(C3)O4)n2)cn1; not satisfied

Is Ki strictly under 20 nM for the entry C[C@H]1COC[C@H](C)N1c1nc(-c2cnc(N)cc2C(F)(F)F)nc(N2CCOCC2)n1 ?
satisfied

Is Ki strictly under 20 nM for the entry C[C@@H]1COC[C@H](C)N1c1nc(-c2cnc(N)cc2C(F)(F)F)nc(N2[C@H](C)COC[C@@H]2C)n1 ?
not satisfied

Is Ki strictly under 20 nM for the entry C[C@@H]1COC[C@H](C)N1c1nc(-c2cnc(N)cc2C(F)(F)F)nc(N2CCOCC2)n1 ?
not satisfied

Is Ki strictly under 20 nM for the entry C[C@@H]1COC[C@@H](C)N1c1nc(-c2cnc(N)cc2C(F)(F)F)nc(N2[C@H](C)COC[C@H]2C)n1 ?
not satisfied

Is Ki strictly under 20 nM for the entry Nc1cc(C(F)(F)F)c(-c2nc(N3C4CCC3COC4)nc(N3C4CCC3COC4)n2)cn1 ?
not satisfied

Is Ki strictly under 20 nM for the entry C[C@@H]1COC[C@@H](C)N1c1nc(-c2cnc(N)cc2C(F)(F)F)nc(N2CCOCC2)n1 ?
not satisfied

Is Ki strictly under 20 nM for the entry C[C@H]1COCCN1c1cc(-c2cnc(N)nc2C(F)F)nc(N2CCOCC2)n1 ?
satisfied
